Numbers sourced from patent US20150274828A1.

target or test system: T1, EGFR-Fc fusion protein (recombinant EGFR extracellular region-Fc) (human, UniProt P00533 25-645)
T1 construct: extracellular domain; not shown: Fc part supplied by vector pABG1
measurement description: BLI ForteBio QKe, biotinylated EGFR-Fc on streptavidin sensor, antibody 20 nM; fold reduction of affinity, parent Ame55 = 1;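 also: parent antibody affinity set as 1, with values giving the fold drop in affinity of each mutant antibody relative to that parent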
For each of the binders below, state its Affinity change.

Consider the reported Affinity change for these binders:
{"binder": "AmeA2C1 (the mutated light chain has Gly at site 26 and Ala at site 89) (antibody, V domains shown, Mutant of Ame55; also called 26G + 89A) VH: EVQLVQSGAEVKKPGESLKISCKGSGYSFTSYWIGWVRQMPGKGLEWMGIIYPGDSDTRYSPSFQGQVTISADKSISTAYLQWSSLKASDTAMYYCARGIIYPSNVAVWGQGTLVTVSS VL: SYELTQPPSVSVAPGQTARITCSGDGLGDKYASWYQQKPGQAPVLVIYEDSKRPSGIPERFSGSNSGNTATLTISGTQAEDEADYYCSAWDGDWGMPVFGGGTKLTVLG", "Affinity change": "< 0.2 fold"}
{"binder": "Ame55 mutant, heavy chain 56A (antibody, V domains shown, Mutant of Ame55) VH: EVQLVQSGAEVKKPGESLKISCKGSGYSFTSYWIGWVRQMPGKGLEWMGIIYPGDADTRYSPSFQGQVTISADKSISTAYLQWSSLKASDTAMYYCARGIIYPSNVAVWGQGTLVTVSS VL: SYELTQPPSVSVAPGQTARITCSGDALGDKYASWYQQKPGQAPVLVIYEDSKRPSGIPERFSGSNSGNTATLTISGTQAEDEADYYCSVWDGDWGMPVFGGGTKLTVLG", "Affinity change": "1 fold"}
{"binder": "AmeA1C3 (the mutated light chain has Lys at site 26 and Ser at site 89) (antibody, V domains shown, Mutant of Ame55; also called 26K + 89S) VH: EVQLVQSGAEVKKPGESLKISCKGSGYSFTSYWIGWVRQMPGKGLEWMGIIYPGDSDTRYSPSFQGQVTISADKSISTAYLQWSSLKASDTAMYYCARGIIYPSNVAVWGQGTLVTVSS VL: SYELTQPPSVSVAPGQTARITCSGDKLGDKYASWYQQKPGQAPVLVIYEDSKRPSGIPERFSGSNSGNTATLTISGTQAEDEADYYCSSWDGDWGMPVFGGGTKLTVLG", "Affinity change": "< 0.2 fold"}

# context switch: different binder, same Affinity change
Just so you know, measured Affinity change for Ame55 mutant, light chain 89L (antibody, V domains shown, Mutant of Ame55) VH: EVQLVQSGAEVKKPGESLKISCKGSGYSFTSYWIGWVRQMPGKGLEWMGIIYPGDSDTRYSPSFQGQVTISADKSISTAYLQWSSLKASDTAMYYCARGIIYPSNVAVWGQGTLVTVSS VL: SYELTQPPSVSVAPGQTARITCSGDALGDKYASWYQQKPGQAPVLVIYEDSKRPSGIPERFSGSNSGNTATLTISGTQAEDEADYYCSLWDGDWGMPVFGGGTKLTVLG came out at 5 fold
